The measurements presented in this section are drawn from patent US20220073617A1.

SUBJECT OF TEST: T1, monovalent hVISTA-ECD (human VISTA extracellular domain with His tail) (human, UniProt Q9H7M9 33-193)
T1 construct: analyte flowed over captured antibody; also called huVISTA-His
ASSAY PROTOCOL: SPR, pH 6.0, average
Attribute: kon
Supply the numeric figure in M⁻¹ s⁻¹, leaving out any unit text.

Please review the following examples before continuing.
• P1-070976 (41F11_VH_T28P/Y50W/S55E/D95H/L96E/P97E/Y100E; Vk_A64G) (antibody, human IgG1, kappa, V domains shown, IgG1.3; also called P1-070976-7; acidic pH selective VISTA.4 progeny) VH: QVQLVESGGGLVKPGGSLRLSCAASGFPFSDYYMSWIRQAPGKGLEWVSWISNSGEPIYYADSVKGRFTISRDNAKNSLYLQMNSLRAEDTAVYYCARHEEGWEFDLWGRGTLVTVSS VL: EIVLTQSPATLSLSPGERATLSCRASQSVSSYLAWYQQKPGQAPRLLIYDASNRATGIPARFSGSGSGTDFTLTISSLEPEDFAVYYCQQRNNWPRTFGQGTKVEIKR = 110000
• VISTA.4 A64G (41F11 Vk:A64G) (antibody, human IgG1, kappa, V domains shown, IgG1.3; also called P1-061520; P1-061520-10) VH: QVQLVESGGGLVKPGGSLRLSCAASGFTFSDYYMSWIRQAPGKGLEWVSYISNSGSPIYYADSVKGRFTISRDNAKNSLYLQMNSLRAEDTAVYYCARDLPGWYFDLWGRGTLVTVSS VL: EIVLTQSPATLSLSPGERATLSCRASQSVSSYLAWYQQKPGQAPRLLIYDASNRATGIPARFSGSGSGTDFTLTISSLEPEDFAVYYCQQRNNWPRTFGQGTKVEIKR = 830000
• P1-065333 (41F11_VH_T28P/Y50W/S55E/L96E/Y100E VK_A64G) (antibody, human IgG1, kappa, V domains shown, IgG1.3; also called P1-065333-1; VISTA.4 pH-independent progeny) VH: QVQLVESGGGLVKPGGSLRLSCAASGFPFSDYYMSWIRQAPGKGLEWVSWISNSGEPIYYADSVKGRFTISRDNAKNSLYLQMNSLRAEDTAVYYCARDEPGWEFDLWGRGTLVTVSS VL: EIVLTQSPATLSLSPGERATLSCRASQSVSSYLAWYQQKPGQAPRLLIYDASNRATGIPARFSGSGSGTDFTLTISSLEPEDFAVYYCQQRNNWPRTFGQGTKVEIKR = 2.7e+06

Entry under test: P1-071799 (P1-070976_H95D) (antibody, human IgG1, kappa, V domains shown, IgG1.3) VH: QVQLVESGGGLVKPGGSLRLSCAASGFPFSDYYMSWIRQAPGKGLEWVSWISNSGEPIYYADSVKGRFTISRDNAKNSLYLQMNSLRAEDTAVYYCARDEEGWEFDLWGRGTLVTVSS VL: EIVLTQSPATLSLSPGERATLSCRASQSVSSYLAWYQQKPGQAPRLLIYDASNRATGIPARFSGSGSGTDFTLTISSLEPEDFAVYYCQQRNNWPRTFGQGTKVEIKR . Its kon was 1.7e+06
